# TARGET_OR_SYSTEM: human PD-L1 (human) (UniProt Q9NZQ7)
# Sequence (Q9NZQ7 19-290): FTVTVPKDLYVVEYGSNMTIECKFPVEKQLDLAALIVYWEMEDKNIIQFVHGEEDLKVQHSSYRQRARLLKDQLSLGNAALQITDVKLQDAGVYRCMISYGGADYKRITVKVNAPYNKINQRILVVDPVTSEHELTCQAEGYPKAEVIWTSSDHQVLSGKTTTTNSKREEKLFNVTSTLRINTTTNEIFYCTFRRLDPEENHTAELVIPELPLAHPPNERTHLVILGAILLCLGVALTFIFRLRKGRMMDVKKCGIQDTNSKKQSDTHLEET
# PROTOCOL_NOTES: flow cytometry, CHO cells stably expressing PD-L1
ASSAY_METRIC: Fold change to WT CD80 (fold)

>>> data_value("variant CD80 IgV-Fc H18Y/E35D/A71G/D90G (Fc fusion) VIHVTKEVKEVATLSCGYNVSVEELAQTRIYWQKDKKMVLTMMSGDMNIWPEYKNRTIFDITNNLSIVILGLRPSDEGTYECVVLKYEKGAFKREHLAEVTLSVKAD")
196
>>> data_value("variant CD80 IgV-Fc A26E/E35D/M47L/D90G (Fc fusion) VIHVTKEVKEVATLSCGHNVSVEELEQTRIYWQKDKKMVLTMMSGDLNIWPEYKNRTIFDITNNLSIVILALRPSDEGTYECVVLKYEKGAFKREHLAEVTLSVKAD")
220
>>> data_value("variant CD80 IgV-Fc E35D/M47L/V68M/D90G (Fc fusion) VIHVTKEVKEVATLSCGHNVSVEELAQTRIYWQKDKKMVLTMMSGDLNIWPEYKNRTIFDITNNLSIMILALRPSDEGTYECVVLKYEKGAFKREHLAEVTLSVKAD")
539
>>> data_value("variant CD80 IgV-Fc H18Y/A26E/M47L/D90G (Fc fusion) VIHVTKEVKEVATLSCGYNVSVEELEQTRIYWQKEKKMVLTMMSGDLNIWPEYKNRTIFDITNNLSIVILALRPSDEGTYECVVLKYEKGAFKREHLAEVTLSVKAD")
205
>>> data_value("variant CD80 IgV-Fc E35D/M47L/A71G/D90G (Fc fusion) VIHVTKEVKEVATLSCGHNVSVEELAQTRIYWQKDKKMVLTMMSGDLNIWPEYKNRTIFDITNNLSIVILGLRPSDEGTYECVVLKYEKGAFKREHLAEVTLSVKAD")
277
>>> data_value("variant CD80 IgV-Fc H18Y/M47L/V68M/D90G (Fc fusion) VIHVTKEVKEVATLSCGYNVSVEELAQTRIYWQKEKKMVLTMMSGDLNIWPEYKNRTIFDITNNLSIMILALRPSDEGTYECVVLKYEKGAFKREHLAEVTLSVKAD")
499
>>> data_value("variant CD80 IgV-Fc H18Y/A26E/E35D/M47L (Fc fusion) VIHVTKEVKEVATLSCGYNVSVEELEQTRIYWQKDKKMVLTMMSGDLNIWPEYKNRTIFDITNNLSIVILALRPSDEGTYECVVLKYEKDAFKREHLAEVTLSVKAD")
228
>>> data_value("variant CD80 IgV-Fc H18Y/A26E/V68M/A71G (Fc fusion) VIHVTKEVKEVATLSCGYNVSVEELEQTRIYWQKEKKMVLTMMSGDMNIWPEYKNRTIFDITNNLSIMILGLRPSDEGTYECVVLKYEKDAFKREHLAEVTLSVKAD")
158
